Recorded values, source PubChem BioAssay.

List of GFP response vs DMSO values.
measurementNotes: TOR pathway LAP4-GFP level changes – S. cerevisiae, multiplex flow cytometry, primary screen (AID 1873)
conditionContext: S. cerevisiae LAP4-GFP expression, 3 h, at 10 µM, stronger effect = higher value
Records with an inconclusive call do not appear.
endpoint: GFP response vs DMSO (%)

>>> measvalue("COc1ccc(C=O)c(OC)c1")
99.5
>>> measvalue("CC(=O)Oc1c2occc2cc2ccc(=O)oc12")
114
>>> measvalue("CC1(C)Cc2ccccc2-c2nc(-c3ccccc3)oc(=O)c21")
107
>>> measvalue("CC(C)[C@H]1CN(C)CCN1Cc1cn(C)nc1-c1cccc(Cl)c1")
90.1
>>> measvalue("O=C1NC(=O)C(c2ccccc2)(c2ccccc2)N1")
93.3
>>> measvalue("CCCNCC(O)COc1ccccc1C(=O)CCc1ccccc1 (stereo not given)")
88.7
>>> measvalue("CCn1c(C)cc2c(c1=O)C(c1ccccc1)C(C(=O)OC)=C(N)O2 (stereo not given)")
108
>>> measvalue("COc1cc(SC)ccc1C(=O)NC(C)C")
101
>>> measvalue("CCCc1cc(C(N)=S)ccn1")
91.4
>>> measvalue("CC(C)CCc1noc(CN2CCC(CCN3CCCC3=O)CC2)n1")
99.1
>>> measvalue("COc1ccc2c(c1O)Cc1ccccc1C2=O")
84.7
>>> measvalue("COc1cccc(-n2cc(CNCc3c(C(=O)N(C)C)nc4ccc(Cl)cn34)cn2)c1")
90.1
>>> measvalue("CN(C)CCOCCOc1ccc(Cl)cc1Br")
77
>>> measvalue("COc1ccccc1/C=C/CN1CCN(Cc2ccc(F)cc2)C(CCO)C1 (stereo not given)")
91.6
>>> measvalue("Cc1ccc2occ(C(=O)c3ccco3)c(=O)c2c1")
85.9
>>> measvalue("CC(=O)Nc1ccccc1C(=O)C(=O)Nc1ccccc1")
114
>>> measvalue("CCOC(=O)c1c(O)c2c([nH]c1=O)CCCC2")
102
>>> measvalue("CN(C)CCC(c1ccccc1)c1ccccn1 (stereo not given)")
83.6
>>> measvalue("O=C1C(Cc2c[nH]c3ccccc23)NC(=S)N1Cc1ccccc1 (stereo not given)")
91.5
>>> measvalue("COc1cc2c(cc1OC)/C(=C/c1ccc(Cl)cc1)C(=O)OC2")
83.1
>>> measvalue("Cc1ccc2c(c1)C(O)(C1COC(C)(C)CC1=O)C(=O)N2C (stereo not given)")
99.1
>>> measvalue("Cc1ccc(Cl)c(Nc2ccccc2C(=O)O)c1Cl")
114
>>> measvalue("O=C(Oc1ccccc1)Oc1ccc2c(c1)oc(=O)c1ccccc12")
90.2
>>> measvalue("Cc1cccc(Oc2coc3cc(OC(=O)c4cncc(Br)c4)ccc3c2=O)c1")
126
>>> measvalue("O=C(/C=C/c1ccc2c(c1)OCO2)NCc1ccc(F)cc1")
108

---

measurementNotes: TOR pathway GLN3 branch reporter MEP2-GFP changes – S. cerevisiae, multiplex flow cytometry, primary screen (AID 1867);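 also: median GFP channel fluorescence of barcode-gated MEP2-GFP cells measured by flow cytometry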
conditionContext: S. cerevisiae MEP2-GFP strain, 3 h, at 10 µM, stronger effect = higher value, 100% means same as DMSO wells
Records with an inconclusive call do not appear.
endpoint: GFP response vs DMSO (%)

>>> measvalue("CN(C)CCOC(c1ccccc1)c1ccccc1")
123
>>> measvalue("CC(C)(C)OC(=O)N1CC(O)CC1C(=O)OCC(=O)c1ccc(Cl)cc1 (configuration not stated)")
98.3
>>> measvalue("COc1ccc(C(C)N2CC34C=CC(O3)C(C(=O)OCC(C)C)C4C2=O)cc1 (configuration not stated)")
107
>>> measvalue("NC(=O)c1ccccc1O")
108
>>> measvalue("c1ccc(SSc2ccccc2)cc1")
108
>>> measvalue("Cc1nc(NC(CC(C)C)C(=O)O)c2nc(C)oc2n1 (configuration not stated)")
111
>>> measvalue("CC(C)(C)NCC(O)COc1ccccc1C(=O)CCc1ccccc1 (configuration not stated)")
101
>>> measvalue("O=C(/C=C/c1ccco1)Nc1ccccc1C(=O)O")
105
>>> measvalue("O=C(O)CCCN1C(=O)NC2NC(=O)NC21 (configuration not stated)")
114
>>> measvalue("COc1ccc(CCN(C)CCCC(C#N)(c2cc(OC)c(OC)c(OC)c2)C(C)C)cc1OC (configuration not stated)")
99.3
>>> measvalue("COc1cccc2c(=O)c3ccccc3oc12")
117
>>> measvalue("Cn1c(=O)c2c(ncn2CCO)n(C)c1=O")
112

---

measurementNotes: calorie-restriction mimetic ROS inhibitors, yeast – validation compound set, pilot screen (AID 2706);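 also: yeast exposed to compound for one week at 30 degrees C before staining; 100% = mean of all compound wells on the same plate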
conditionContext: S. cerevisiae aging, superoxide DHE fluorescence; at 10 µM
Activity calls are given as the source filed them.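 Rule for the calls: active = superoxide response below 65% of plate, a cut near 3 SD across the whole screen; inactive = the rest.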
Outcome codes: active, inactive

>>> labelclass("COc1cc2c(cc1OC)CN(C(=O)c1ccc(S(=O)(=O)N(C)c3ccccc3)cc1)CC2")
"active"
>>> labelclass("CCCC(=O)O[C@]1(C(=O)COC(C)=O)CC[C@H]2[C@@H]3C[C@H](F)C4=CC(=O)C=C[C@]4(C)[C@@]3(F)[C@@H](O)C[C@@]21C")
"inactive"
>>> labelclass("C#C[C@]1(O)CC[C@H]2[C@@H]3CCc4cc(OC5CCCC5)ccc4[C@H]3CC[C@@]21C")
"inactive"
>>> labelclass("CC(=O)CCCCn1c(=O)c2c(ncn2C)n(C)c1=O")
"inactive"
>>> labelclass("COc1ccc(/C=C/C(=O)Nc2ccccc2C(=O)O)cc1OC")
"inactive"
>>> labelclass("COC(=O)[C@@H](N)CS")
"inactive"
>>> labelclass("Cc1ccc(Cl)c(OCCCN(C)Cc2ccccc2)c1")
"inactive"
>>> labelclass("CC(C(=O)O)c1cccc(C(=O)c2ccccc2)c1 (configuration not stated)")
"inactive"
>>> labelclass("COc1ccc2c(c1OC)C(=O)OC2C1c2c(cc3c(c2OC)OCO3)CCN1C (configuration not stated)")
"inactive"
>>> labelclass("CCC(C(=O)Nc1ccc2c(c1)OCCO2)c1ccccc1 (configuration not stated)")
"inactive"
>>> labelclass("O=C1C(O)CC2c3ccccc3CC3(CCCC3)N12 (configuration not stated)")
"inactive"
>>> labelclass("O=C(O)c1ccc(N2C(=O)/C(=C\\c3ccccc3)N=C2c2ccccc2)cc1")
"inactive"
>>> labelclass("COc1ccccc1Oc1c(C)oc2c(CN3CCN(CCO)CC3)c(O)ccc2c1=O")
"inactive"
>>> labelclass("CC(C)COC(=O)C1C(=O)CC(C)(O)C(C(=O)OCC(C)C)C1c1cccnc1 (configuration not stated)")
"inactive"
>>> labelclass("COc1ccc(C(=O)NCC2OCCc3ccccc32)cc1 (configuration not stated)")
"inactive"
>>> labelclass("CSc1cccc(NC(=O)/C=C/c2ccccc2)c1")
"inactive"
>>> labelclass("Nc1c(C(=O)c2ccccc2)oc2ccccc12")
"inactive"
>>> labelclass("CCOCCn1c(C(C)O)nc2ccccc21 (configuration not stated)")
"inactive"
>>> labelclass("O=C(CN1C(=O)c2ccccc2C1=O)Nc1cccc([N+](=O)[O-])c1")
"inactive"
>>> labelclass("COc1ccc(CCN2C(=O)CSC2c2ccc(OC)c(OC)c2)cc1OC (configuration not stated)")
"inactive"
>>> labelclass("CSCCC(NC(=O)/C(=C/c1ccc2c(c1)OCO2)NC(=O)c1cccc([N+](=O)[O-])c1)C(=O)O (configuration not stated)")
"inactive"
>>> labelclass("OCCOCCN1CCN(C(c2ccccc2)c2ccc(Cl)cc2)CC1 (configuration not stated)")
"inactive"

---

systemName: Regulator of G-protein signaling 7 (Homo sapiens)
measurementNotes: small molecules altering RGS protein interactions with GNAO1 – biochemical, multiplexed beads, flow cytometry, RGS4/7/8/16/19, primary screen (AID 1504);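 also: fluorescently labeled Galpha-o bound to GDP with aluminium fluoride binding biotinylated RGS beads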
conditionContext: multiplexed bead flow cytometry, measured here: RGS7 interaction, at 10 µM
This is one part of the list.
In this section we review reported RGS7–Galpha-o binding response values for a set of compounds.
endpoint: RGS7–Galpha-o binding response (%)

>>> measvalue("COc1ccccc1-n1c(-c2cc(-c3ccco3)[nH]n2)n[nH]c1=S")
-527
>>> measvalue("COc1cc(C(=O)Nc2cc(C(F)(F)F)ccc2N2CCOCC2)ccc1O")
84.8
>>> measvalue("CCOC(=O)c1oc2c(CN3CCN(C)CC3)c(O)ccc2c(=O)c1-c1ccc(Br)cc1")
318
>>> measvalue("Cc1ccc(-n2c(SCC(=O)Nc3ncc(Cl)cc3Cl)nc3ccccc32)cc1")
83.7
>>> measvalue("Cc1cc(C)n(CC(O)CN(c2ccccc2)S(=O)(=O)c2ccc3ccccc3c2)n1 (stereo not given)")
1.45
>>> measvalue("Cc1ccccc1CS(=O)(=O)CC1(O)CCN(C(=O)c2cccc(C(F)(F)F)c2)CC1")
157
>>> measvalue("CCCn1c(C)cc(C(=O)COC(=O)c2c(C)nn(-c3ccccc3)c2C)c1C")
81.9
>>> measvalue("O=C(NCc1ccc(F)cc1)C1CCC(CNc2c(N3CCOCC3)c(=O)c2=O)CC1 (stereo not given)")
-657
>>> measvalue("Cc1ccc(OCC(O)CN2CCN(CC(O)COc3ccc(C)cc3Cl)CC2)c(Cl)c1 (stereo not given)")
127
>>> measvalue("Oc1ccc(N=Nc2nccs2)c(O)c1")
270
